All figures here come from patent US20230105029A1.

TESTED TARGET: T1, recombinant human IL4Rα-his protein (in house made) (human, UniProt P24394 26-232, limits assumed)
T1 construct: also called Human IL4Ra-his
TEST PROTOCOL: SPR (Biacore), antibody captured, IL4Rα-his flowed
OBSERVED PROPERTY: Kd (nM)
Give the quantity in nM, number only.

Reference set (3 entries):
{"BINDER": "chimeric antibody B8G11F2B7G5E8 (antibody, human IgG4 S228P, kappa, V domains shown, Mouse variable domains on human IgG4/kappa; also called Chimeric B8G11F2B7G5E8; chB8G11F2B7G5E8) VH: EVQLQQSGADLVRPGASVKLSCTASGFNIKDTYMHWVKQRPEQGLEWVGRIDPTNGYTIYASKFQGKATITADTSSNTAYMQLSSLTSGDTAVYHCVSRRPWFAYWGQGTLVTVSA VL: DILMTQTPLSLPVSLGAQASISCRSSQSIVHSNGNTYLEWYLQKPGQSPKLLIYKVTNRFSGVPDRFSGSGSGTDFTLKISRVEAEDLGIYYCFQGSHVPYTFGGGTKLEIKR", "Kd / nM": 2.99}
{"BINDER": "chimeric antibody C2C1A1A1 (antibody, human IgG4 S228P, kappa, V domains shown, Mouse variable domains on human IgG4/kappa; also called Chimeric C2C1A1A1; chC2C1A1A1) VH: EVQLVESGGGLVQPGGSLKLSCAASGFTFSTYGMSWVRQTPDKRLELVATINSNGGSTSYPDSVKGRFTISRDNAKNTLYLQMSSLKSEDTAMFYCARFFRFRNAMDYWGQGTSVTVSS VL: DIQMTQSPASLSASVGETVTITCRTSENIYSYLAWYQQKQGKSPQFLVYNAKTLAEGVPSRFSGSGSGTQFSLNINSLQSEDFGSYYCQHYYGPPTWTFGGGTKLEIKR", "Kd / nM": 0.522}
{"BINDER": "mouse antibody B8G11F2B7G5E8 (antibody, V domains shown, Mouse hybridoma mAb; also called Mouse B8G11F2B7G5E8; mAb B8G11F2B7G5E8) VH: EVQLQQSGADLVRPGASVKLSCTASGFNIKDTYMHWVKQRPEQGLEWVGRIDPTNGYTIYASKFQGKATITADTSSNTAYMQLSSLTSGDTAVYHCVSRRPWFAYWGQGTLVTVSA VL: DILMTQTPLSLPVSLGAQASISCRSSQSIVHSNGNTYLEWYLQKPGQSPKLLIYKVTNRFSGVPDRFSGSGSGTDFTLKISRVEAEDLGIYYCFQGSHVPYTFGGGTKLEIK", "Kd / nM": 2.98}

# context switch: different binder, same Kd
stdin: Look up Kd for this binder: mouse antibody C2C1A1A1 (antibody, V domains shown, Mouse hybridoma mAb; also called Mouse C2C1A1A1) VH: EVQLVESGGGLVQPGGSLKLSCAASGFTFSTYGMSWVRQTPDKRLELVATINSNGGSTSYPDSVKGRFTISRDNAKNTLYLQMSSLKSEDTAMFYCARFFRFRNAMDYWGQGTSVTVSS VL: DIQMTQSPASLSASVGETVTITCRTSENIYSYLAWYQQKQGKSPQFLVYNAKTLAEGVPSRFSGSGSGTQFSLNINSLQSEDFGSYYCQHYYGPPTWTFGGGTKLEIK
stdout: 0.119
